B1: library; a variant is named by its letters at N, in order (parent)
chain: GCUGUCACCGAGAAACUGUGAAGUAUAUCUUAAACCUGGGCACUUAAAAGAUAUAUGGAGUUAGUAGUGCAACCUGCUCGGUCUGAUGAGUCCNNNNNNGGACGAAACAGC

Variants of: B1
Assay: normalized RNA/DNA level without ligand (relative to sTRSVctl = 100) (log10 (% of sTRSVctl)); HEK293T; ligand: cyclic di-GMP (c-di-GMP-II aptamer); higher = less ribozyme self-cleavage, higher mRNA level
Conditions: reporter: mCherry (pCS4076), ligand present: no
# normalized RNA/DNA level without ligand (log10) values compiled below
Field format: numeric only.

Below are worked cases with known answers.
Exam item: // query normalized RNA/DNA level without ligand (log10) value for entry `GCUGUCACCGAGAAACUGUGAAGUAUAUCUUAAACCUGGGCACUUAAAAGAUAUAUGGAGUUAGUAGUGCAACCUGCUCGGUCUGAUGAGUCCCUGUUCGGACGAAACAGC`
Marked response: 1.64

Exam item: // lookup normalized RNA/DNA level without ligand (log10) for `GCUGUCACCGAGAAACUGUGAAGUAUAUCUUAAACCUGGGCACUUAAAAGAUAUAUGGAGUUAGUAGUGCAACCUGCUCGGUCUGAUGAGUCCUUAGACGGACGAAACAGC`
Marked response: 1.7

Exam item: // normalized RNA/DNA level without ligand (log10) lookup, key: `GCUGUCACCGAGAAACUGUGAAGUAUAUCUUAAACCUGGGCACUUAAAAGAUAUAUGGAGUUAGUAGUGCAACCUGCUCGGUCUGAUGAGUCCAAGCACGGACGAAACAGC`
Marked response: 1.68

Exam item: Quick check: normalized RNA/DNA level without ligand (log10) of `GCUGUCACCGAGAAACUGUGAAGUAUAUCUUAAACCUGGGCACUUAAAAGAUAUAUGGAGUUAGUAGUGCAACCUGCUCGGUCUGAUGAGUCCGUGUCGGGACGAAACAGC` ?
Marked response: 1.68

Exam item: normalized RNA/DNA level without ligand (log10) lookup needed for `GCUGUCACCGAGAAACUGUGAAGUAUAUCUUAAACCUGGGCACUUAAAAGAUAUAUGGAGUUAGUAGUGCAACCUGCUCGGUCUGAUGAGUCCUGACUGGGACGAAACAGC` , thanks.
Marked response: 1.7

Exam item: Return reported normalized RNA/DNA level without ligand (log10); argument: `GCUGUCACCGAGAAACUGUGAAGUAUAUCUUAAACCUGGGCACUUAAAAGAUAUAUGGAGUUAGUAGUGCAACCUGCUCGGUCUGAUGAGUCCGCGCCAGGACGAAACAGC`
Marked response: 1.7

---
Exam item: What value of normalized RNA/DNA level without ligand (log10) has been recorded for this entry: `GCUGUCACCGAGAAACUGUGAAGUAUAUCUUAAACCUGGGCACUUAAAAGAUAUAUGGAGUUAGUAGUGCAACCUGCUCGGUCUGAUGAGUCCGACUCCGGACGAAACAGC`
Marked response: 1.77

Exam item: Param item = `GCUGUCACCGAGAAACUGUGAAGUAUAUCUUAAACCUGGGCACUUAAAAGAUAUAUGGAGUUAGUAGUGCAACCUGCUCGGUCUGAUGAGUCCUUGGUAGGACGAAACAGC` ; retrieve measured normalized RNA/DNA level without ligand (log10).
Marked response: 1.45

Exam item: Entry `GCUGUCACCGAGAAACUGUGAAGUAUAUCUUAAACCUGGGCACUUAAAAGAUAUAUGGAGUUAGUAGUGCAACCUGCUCGGUCUGAUGAGUCCCAAGGCGGACGAAACAGC` : reported normalized RNA/DNA level without ligand (log10) = ?
Marked response: 1.71

Exam item: Entry `GCUGUCACCGAGAAACUGUGAAGUAUAUCUUAAACCUGGGCACUUAAAAGAUAUAUGGAGUUAGUAGUGCAACCUGCUCGGUCUGAUGAGUCCGACACAGGACGAAACAGC` has what normalized RNA/DNA level without ligand (log10)?
Marked response: 1.63

Exam item: Item under review: `GCUGUCACCGAGAAACUGUGAAGUAUAUCUUAAACCUGGGCACUUAAAAGAUAUAUGGAGUUAGUAGUGCAACCUGCUCGGUCUGAUGAGUCCCUUCGCGGACGAAACAGC` . Reported normalized RNA/DNA level without ligand (log10)?
Marked response: 1.79
